- Test system: NCI-H460 lung
- method: NCI tumour cell line growth inhibition, 48 h
assayMetric: TGI (µM)
Form entry: value (µM) — number only.

Some entries whose results are on file:
CN(C)CCO/N=C1/C=C2CC[C@H]3[C@@H]4CC[C@H](O)[C@@]4(C)CC[C@@H]3[C@@]2(C)CC1 ... 21.9
CC(=O)O[C@H]1C(=O)[C@@]2(C)[C@H]([C@H](OC(=O)C3CCCCC3)[C@]3(O)C[C@H](OC(=O)[C@H](O)[C@@H](NC(=O)C4CCCCC4)C4CCCCC4)C(C)=C1C3(C)C)[C@]1(OC(C)=O)CO[C@@H]1C[C@@H]2O ... 3.87
COc1ccc(OC)c2nc3c(C(=O)NCCN(C)C)cccc3nc12 ... 21.5
CCCCc1c2c(nc3c1CCC/C3=C\c1ccccc1)C(=O)C(CN(C)C)CC2 (stereo not given) ... 34.5
Cc1ccc2c(N)c(C(=O)N[C@H]3CCc4cc(N5CC6CCC(C5)N6)ccc4C3)sc2n1 ... 1.43
C=C(C)[C@@H]1CC[C@]2(C(=O)O)CC[C@]3(C)[C@H](CC[C@@H]4[C@@]5(C)CC[C@H](C(=O)/C=C/c6ccc(O)cc6)C(C)(C)[C@@H]5CC[C@]43C)[C@@H]12 ... 17.3

Assay NCI-H460 lung, sample CCN(CC)CCCCCCCNc1c2ccc(Cl)cc2nc2ccc(OC)cc12 , TGI read: 1.67

Assay NCI-H460 lung, sample Cc1cc(S(=O)(=O)Nc2nnc(-c3ccccc3)c(-c3ccccc3)n2)c(SCc2ccccc2)cc1Cl , TGI read: 65.7

====

- Tested on: M14 melanoma
- method: NCI tumour cell line growth inhibition, 48 h
Please mark 1 if the recorded TGI is equal to or greater than 30 µM, and -1 if it falls below.

Worked set:
CC1=Cc2cc3[n-]c(cc4nc(cc5[n-]c(cc1n2)cc5C)C(C)=C4CCC(=O)O)c(CCC(=O)O)c3C.[Pd+2] ... 1
S=C(Nc1ccc(Cl)cc1)Nc1ccc(Cl)cc1 (tested in a mixture with another compound) ... -1
O=C(c1ccccc1)c1c(C(=O)c2ccccc2)c(-c2ccccc2)c2c(-c3ccccc3)sc(-c3ccccc3)c2c1-c1ccccc1 ... 1
CCOC(=O)Oc1c(OC)cc(C(=O)O[C@@H]2C[C@@H]3CN4CCc5c([nH]c6cc(OC)ccc56)[C@H]4C[C@@H]3[C@H](C(=O)OC)[C@H]2OC)cc1OC ... -1

Now take the following compound into account.
Check the entry Cc1cc2oc(=O)[nH]c(=S)c2c(C)c1C : does TGI equal or exceed 30 µM? 1

====

Each entry below carries its recorded TGI.
- Tested on: A549 NSCLC
- method: NCI tumour cell line growth inhibition, 48 h

Some entries whose results are on file:
CC(=O)N1c2ccccc2Sc2cc(C(O)(C(F)(F)F)C(F)(F)F)ccc21 ... > 10 µM
CC(C)(C)[C@H]1CO[C@]2(C)[C@@H]3C[C@@H]3C(=O)N12 ... > 100 µM
C=C1CC[C@@H]2C(C)(C)CCC[C@@]2(C)[C@@H]1Cc1cc(O)ccc1O ... 23 µM
Nc1c(-c2nc3ccccc3[nH]2)sc(=S)n1-c1ccccc1 ... > 100 µM
Cc1[nH]c(/C=C2\C(=O)Nc3ccc(F)cc32)c(C)c1C(=O)NC[C@H](O)CN1CCOCC1 ... > 10 µM
CC(=O)OC1COC(n2c(N)c(C#N)c(C)c(C#N)c2=S)C(OC(C)=O)C1OC(C)=O (stereo not given) ... > 100 µM
COC(=O)N/N=C/c1oc(-c2cccc([N+](=O)[O-])c2)c(-c2cccc([N+](=O)[O-])c2)c1[N+](=O)[O-] ... > 100 µM
NC1=NC(OCC2(CO)CCC2)C=C(NCC2(CO)CCC2)N1 (stereo not given) ... > 100 µM

Recorded TGI (molecule O=C(/C=C/c1ccc(O)cc1)NCCc1ccc(O)cc1 ): > 12.5 µM

Recorded TGI (molecule O=[N+]([O-])c1cccc2nccc(NCC(O)CO)c12 (stereo not given) ): 36.4 µM
